FYI, the data here is from ChEMBL document CHEMBL1201862.

- Tested on: UO-31
- method_description: NCI tumour cell line growth inhibition, 48 h
Active and inactive are the calls of the source. Cut-off read from the data, not from the text of the source: active = GI50 up to about 1.1 µM and inactive = higher.
readout_type: GI50

Q: Value wanted: GI50 (UO-31) of entry `O=C1NCCS(=O)(=O)N2CCC[C@@H]12`
A: > 100 µM (inactive)

Q: Same for `CCCCCC(=O)NC(=S)Nc1nnn[nH]1`
A: > 100 µM (inactive)

Q: Same for `O=C(/C=C/c1ccccc1)Nc1ccccc1SCCCCl`
A: 7.48 µM (inactive)

Q: Same for `O=c1/c(=C/c2c(O)ccc3ccccc23)sc2nc3ccccc3n12`
A: > 100 µM (inactive)

Q: Same for `CC(=O)NNc1nc(C)c(C(=O)NNC(=O)C(=O)Nc2nc3ccc([N+](=O)[O-])cc3s2)s1`
A: 33.2 µM (inactive)

Q: Same for COC(=O)/C=C/c1ccc2c(c1)CC1(C2)Cc2cc3c(cc2C1=O)CCC3 (stereo unspecified)
A: 50.8 µM (inactive)

----------
- Test system: MDA-MB-231
- method_description: NCI tumour cell line growth inhibition, 48 h
The source made the active and inactive calls. Cut-off read from the data, not from the text of the source: active = GI50 up to about 1.1 µM and inactive = higher.
Kindly state GI50 for each of the entries shown.

Q: Value wanted: GI50 (MDA-MB-231) of entry `CCN1/C(=C/c2ccc3ccccc3[n+]2CC)C=Cc2ccccc21`
A: 1.77 µM (inactive)

Q: Same for `CCN(CC)CCNc1ccc2nnn3c4ccc([N+](=O)[O-])cc4c(=O)c1c23`
A: 3.94 µM (inactive)

Q: Same for `COc1cc(C)cc2c(-c3c(O)cc(O)c4c3C[C@H](C)N[C@H]4C)cc(-c3cc(-c4c(O)cc(O)c5c4C[C@H](C)N[C@H]5C)c4cc(C)cc(OC)c4c3O)c(O)c12`
A: > 100 µM (inactive)

Q: Same for `O=C(/C=C/c1ccc(O)c(O)c1)OCCCc1ccccc1`
A: 11.8 µM (inactive)

Q: Same for `N#C/C(=C\c1ccc(F)cc1)c1nc2ccccc2c(=O)[nH]1`
A: 48.3 µM (inactive)

Q: Same for C=C1C(=O)OC2CC(C)C3C=CC(=O)C3CC12 (stereo not given)
A: 1.89 µM (inactive)

Q: Same for `COc1ccc(/C=c2\s/c(=C3/SC(=S)N(c4ccccc4)C3=O)n(-c3ccccc3)c2=O)cc1`
A: 49.3 µM (inactive)

Q: Same for `NC(=O)c1nnc2cc(F)c(F)cc2c1N`
A: 44.1 µM (inactive)

Q: Same for `CC(=O)OC(C)(C)/N=N/c1ccc(Br)cc1`
A: > 76.2 µM (inactive)

Q: Same for `C=C(C)C[C@H](Sc1nc2ccccc2s1)[C@H](C)O`
A: 73.6 µM (inactive)

Q: Same for `COC(=O)[C@@H]1[C@H](O)CC[C@H]2[C@@]1(C)CC[C@@H](C)[C@]2(COC(C)=O)CC(=O)c1ccoc1`
A: > 50 µM (inactive)

Q: Same for `O=C1NCCCc2nonc21`
A: > 100 µM (inactive)

Q: Same for COC1CC2C=CC3C4OC2(/C(C)=C/C(C)C(C(C)O)OC1=O)C3C(O)C(C)C4OC(=O)c1ccc[nH]1 (stereo not given)
A: > 100 µM (inactive)

Q: Same for `Cc1cc(N=C2C=C(Br)C(=O)C(Br)=C2)cc(CN(CC(=O)O)CC(=O)O)c1O`
A: > 100 µM (inactive)

Q: Same for `Cc1nn(CN2CCN(C)CC2)c(=S)n1/N=C/c1ccc(-c2ccc(Cl)cc2Cl)o1`
A: 63.8 µM (inactive)
